Biological target: α2,6(N)-sialyltransferases ST6GALI (Homo sapiens, UniProt P15907)
Construct: purchased RnDSystems.com (R&D Systems)
Sequence (P15907 1-406): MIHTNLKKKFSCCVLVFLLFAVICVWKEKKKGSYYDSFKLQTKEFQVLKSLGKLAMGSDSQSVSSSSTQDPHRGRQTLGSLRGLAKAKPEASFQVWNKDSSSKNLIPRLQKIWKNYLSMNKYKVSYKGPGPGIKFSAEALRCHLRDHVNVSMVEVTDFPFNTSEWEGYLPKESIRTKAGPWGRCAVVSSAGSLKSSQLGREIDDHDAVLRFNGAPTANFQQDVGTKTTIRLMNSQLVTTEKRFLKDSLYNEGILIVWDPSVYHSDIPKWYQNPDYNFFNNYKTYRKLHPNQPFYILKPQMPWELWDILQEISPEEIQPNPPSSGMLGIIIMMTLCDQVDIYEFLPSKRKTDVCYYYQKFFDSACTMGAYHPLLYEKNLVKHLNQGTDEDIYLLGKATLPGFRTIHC
Test: Sialyltransferase inhibition assay, ST6GALI (reverse-phase HPLC)
Format: biochemical
Quick reference for selectivity ratio ST3GALI/ST6GALI among some molecules

Worked cases, selectivity ratio ST3GALI/ST6GALI given:
molecule	selectivity ratio ST3GALI/ST6GALI
C[C@H](CCC(=O)O)[C@H]1CC[C@H]2[C@@H]3CC[C@@H]4C[C@H](OC(=O)[C@@H](N)CC(=O)O)CC[C@]4(C)[C@H]3CC[C@]12C [Lith-O-Asp, reference compound]	3
C[C@H](CCC(=O)OCCOCCOCCOCCN=[N+]=[N-])C1CC[C@H]2[C@@H]3CC[C@@H]4C[C@H](OC(=O)[C@H](CC(=O)O)NC(=O)c5ccc([N+](=O)[O-])cc5)CC[C@]4(C)[C@H]3CC[C@]12C (stereo partly shown)	>88
C[C@H](CCC(=O)OCCOCCOCCOCCN=[N+]=[N-])C1CC[C@H]2[C@@H]3CC[C@@H]4C[C@H](OC(=O)[C@H](CC(=O)O)Nc5ccc([N+](=O)[O-])c6nonc56)CC[C@]4(C)[C@H]3CC[C@]12C (stereo partly shown)	>102
COc1ccc2c(CC(=O)N[C@@H](CC(=O)O)C(=O)O[C@@H]3CC[C@@]4(C)[C@H](CC[C@@H]5[C@@H]4CC[C@]4(C)C([C@H](C)CCC(=O)OCCOCCOCCOCCOCCN=[N+]=[N-])CC[C@@H]54)C3)cc(=O)oc2c1 (stereo partly shown)	>88

Param item = C[C@H](CCC(=O)OCCOCCOCCN=[N+]=[N-])C1CC[C@H]2[C@@H]3CC[C@@H]4C[C@H](OC(=O)[C@H](CC(=O)O)NC(=O)c5ccc([N+](=O)[O-])cc5)CC[C@]4(C)[C@H]3CC[C@]12C (stereo partly shown) ; retrieve measured selectivity ratio ST3GALI/ST6GALI.
>94

Check C[C@H](CCC(=O)OCCOCCOCCOCCOCCN=[N+]=[N-])C1CC[C@H]2[C@@H]3CC[C@@H]4C[C@H](OC(=O)[C@H](CC(=O)O)NC(=O)c5ccc([N+](=O)[O-])cc5)CC[C@]4(C)[C@H]3CC[C@]12C (stereo partly shown) too.
>67

Another molecule to check: C[C@H](CCC(=O)OCCOCCOCCOCCOCCN=[N+]=[N-])C1CC[C@H]2[C@@H]3CC[C@@H]4C[C@H](OC(=O)[C@H](CC(=O)O)Nc5ccc([N+](=O)[O-])c6nonc56)CC[C@]4(C)[C@H]3CC[C@]12C (stereo partly shown)
>99

Now the same for COc1ccc2c(CC(=O)N[C@@H](CC(=O)O)C(=O)O[C@@H]3CC[C@@]4(C)[C@H](CC[C@@H]5[C@@H]4CC[C@]4(C)C([C@H](C)CCC(=O)OCCOCCN=[N+]=[N-])CC[C@@H]54)C3)cc(=O)oc2c1 (stereo partly shown)
>97

Also need C[C@H](CCC(=O)OCCOCCOCCN=[N+]=[N-])C1CC[C@H]2[C@@H]3CC[C@@H]4C[C@H](OC(=O)[C@H](CC(=O)O)Nc5ccc([N+](=O)[O-])c6nonc56)CC[C@]4(C)[C@H]3CC[C@]12C (stereo partly shown) , thanks.
>139

Now consider COc1ccc2c(CC(=O)N[C@@H](CC(=O)O)C(=O)O[C@@H]3CC[C@@]4(C)[C@H](CC[C@@H]5[C@@H]4CC[C@]4(C)C([C@H](C)CCC(=O)OCCOCCOCCN=[N+]=[N-])CC[C@@H]54)C3)cc(=O)oc2c1 (stereo partly shown) and answer again.
>109

Cited source: patent US10889611B2
